Measured values drawn from the RNAGym collection of RNA variant scans (doi:10.1073/pnas.2313332121) for this set.

// values below are reported polymerase ribozyme fitness (log ratio)
B1: TPR 5TU (parent)
chain: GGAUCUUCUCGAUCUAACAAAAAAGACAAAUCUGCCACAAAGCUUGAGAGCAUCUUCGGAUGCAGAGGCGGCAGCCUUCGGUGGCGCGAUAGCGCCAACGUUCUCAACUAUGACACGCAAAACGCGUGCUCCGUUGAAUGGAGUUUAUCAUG

Variants of: B1
Assay: polymerase ribozyme fitness, log enrichment relative to wild type (log ratio); higher = more active; in vitro selection for triplet polymerase activity
This sample holds only a part of the variants without activity.

Illustrative cases are given below, each with its answer.
>>> measured_result("G83A A107G G136A G140A")
"≤ -4.2"
>>> measured_result("G84A U90A A121U")
"≤ -4.2"
>>> measured_result("U56A G70A G81C")
"≤ -4.2"
>>> measured_result("G83A G88U U111G U135A")
"≤ -4.2"
>>> measured_result("A30C C35U G59A G88U G117A")
"≤ -4.2"

For this variant ( C51A C72A G80U U146C ), measured polymerase ribozyme fitness (log ratio) is ≤ -4.2

For this variant ( G25U G48C A52G C54G C57A A60G C96G U101G ), measured polymerase ribozyme fitness (log ratio) is ≤ -4.2
